As shown below, each of these sequences has a reported total protein half-life in vivo value.
Test: total protein half-life in vivo (active degradation + dilution); higher = more stable protein
Conditions: wild type E. coli NCM3722; growth: N-lim chemostat; doubling time 12 h
Return type: number; implicit unit h.

Example cases with answers are listed next.
monomer_sequence: MSNQFGDTRIDDDLTLLSETLEEVLRSSGDPADQKYVELKARAEKALDDVKKRVSQASDSYYYRAKQAVYRADDYVHEKPWQGIGVGAAVGLVLGLLLARR [P0AEH5]
units_text: h
total protein half-life in vivo: 14.8
//
monomer_sequence: MRIGHGFDVHAFGGEGPIIIGGVRIPYEKGLLAHSDGDVALHALTDALLGAAALGDIGKLFPDTDPAFKGADSRELLREAWRRIQAKGYTLGNVDVTIIAQAPKMLPHIPQMRVFIAEDLGCHMDDVNVKATTTEKLGFTGRGEGIACEAVALLIKATK
units_text: h
total protein half-life in vivo: 8.67
//
monomer_sequence: MRSKYIVIEGLEGAGKTTARNVVVETLEQLGIRDMVFTREPGGTQLAEKLRSLVLDIKSVGDEVITDKAEVLMFYAARVQLVETVIKPALANGTWVIGDRHDLSTQAYQGGGRGIDQHMLATLRDAVLGDFRPDLTLYLDVTPEVGLKRARARGELDRIEQESFDFFNRTRARYLELAAQDKSIHTIDATQPLEAVMDAIRTTVTHWVKELDA [P0A720]
units_text: h
total protein half-life in vivo: 6.63

API: the following record is the query input.
Give the measured total protein half-life in vivo for MKTPLVTREGYEKLKQELNYLWREERPEVTKKVTWAASLGDRSENADYQYNKKRLREIDRRVRYLTKCLENLKIVDYSPQQEGKVFFGAWVEIENDDGVTHRFRIVGYDEIFGRKDYISIDSPMARALLKKEVGDLAVVNTPAGEASWYVNAIEYVKP
5.23
